Tested on: wild-type M. smegmatis 70S ribosomes
Assay Details: Cell-free luciferase translation assay, wild-type ribosomes
Assay type: biochemical
Assay Context: read-out: IC50, inhibition of luciferase synthesis; Mycobacterium smegmatis wild-type ribosomes; coupled transcription–translation, 37°C, 60 min
Endpoint Name: IC50 (nM)
Value expressed in nM; do not type the unit.

1. CN[C@@H]1[C@@H](O)[C@@H](O[C@@H]2[C@@H](O)[C@H](O[C@H]3O[C@H]([C@@H](C)O)[C@@H](O)[C@H](O)[C@H]3N)[C@@H](N)C[C@H]2N)OC[C@]1(C)O: 30
2. CCN[C@@H]1C[C@H](N)[C@@H](O[C@H]2OC(CN)=CC[C@H]2N)[C@H](O)[C@H]1O[C@H]1OC[C@](C)(O)[C@H](NC)[C@H]1O: 50
3. NC[C@@H]1O[C@H](O[C@H]2[C@@H](O)[C@H](O[C@@H]3[C@@H](O)[C@H](N)C[C@H](N)[C@H]3O[C@H]3O[C@H](CO)[C@@H](O)[C@H](O)[C@H]3N)O[C@@H]2CO)[C@H](N)[C@@H](O)[C@@H]1O: 30

Challenge: Can you share its IC50? I mean this compound: `NC[C@H]1O[C@H](O[C@H]2[C@H](O)[C@@H](O[C@H]3O[C@H](CO)[C@@H](O)[C@H](N)[C@H]3O)[C@H](N)C[C@@H]2N)[C@H](N)C[C@@H]1O`
Response given: 20
